Parameter protein stability index: see the listing below.
B1: TMEM175 (parent)
chain: SCTIIFLASIFQLAMWTTALLHQA

Variants of: B1
ASSAY_NAME: protein stability index of a GFP-peptide fusion (GPS, HEK-293T) (PSI 1-6); higher = more stable;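 further: lentivirally expressed fusions sorted by FACS into six bins by GFP to DsRed ratio, PSI derived from sequencing read proportions per bin multiplied by bin number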
SETUP_CONDITIONS: c terminus: a fixed tail appended
MEASUREMENT_LABEL: protein stability index

BIOSEQUENCE: SCTIIFLASIFQLAFWTTALLHQA [M15F]
OBSERVED_VALUE: 2.73
//
BIOSEQUENCE: SCTIIFLAGIFQLAMWTTALLHQA [S9G]
OBSERVED_VALUE: 2.5
//
BIOSEQUENCE: SRTIIFLASIFQLAMWTTALLHQA [C2R]
OBSERVED_VALUE: 2.3
//
BIOSEQUENCE: SCTIIVLASIFQLAMWTTALLHQA [F6V]
OBSERVED_VALUE: 2.74
//
BIOSEQUENCE: SCQIIFLASIFQLAMWTTALLHQA [T3Q]
OBSERVED_VALUE: 3
//
BIOSEQUENCE: SCTIIFLASIFQPAMWTTALLHQA [L13P]
OBSERVED_VALUE: 2.24
//
BIOSEQUENCE: SCTIIFSASIFQLAMWTTALLHQA [L7S]
OBSERVED_VALUE: 2.77
//
BIOSEQUENCE: SCTIIQLASIFQLAMWTTALLHQA [F6Q]
OBSERVED_VALUE: 2.14
//
BIOSEQUENCE: SCTIIFLAKIFQLAMWTTALLHQA [S9K]
OBSERVED_VALUE: 3.56
//
BIOSEQUENCE: QCTIIFLASIFQLAMWTTALLHQA [S1Q]
OBSERVED_VALUE: 1.64
//
BIOSEQUENCE: SCTIIFLASIFHLAMWTTALLHQA [Q12H]
OBSERVED_VALUE: 3.19
//
BIOSEQUENCE: SCTIIFRASIFQLAMWTTALLHQA [L7R]
OBSERVED_VALUE: 3.25
//
BIOSEQUENCE: SCTIIFLASIFQLAMATTALLHQA [W16A]
OBSERVED_VALUE: 3.29
//
BIOSEQUENCE: SCYIIFLASIFQLAMWTTALLHQA [T3Y]
OBSERVED_VALUE: 4.1
//
BIOSEQUENCE: SCTIIFLASIPQLAMWTTALLHQA [F11P]
OBSERVED_VALUE: 2.96
//
BIOSEQUENCE: SCTIIFLASIFQLAMWTAALLHQA [T18A]
OBSERVED_VALUE: 2.23
//
BIOSEQUENCE: SCTIIFLASIFQLAMWTTALLHQN [A24N]
OBSERVED_VALUE: 2.45
//
BIOSEQUENCE: SCTIIFLASIFQLAMWTTALLVQA [H22V]
OBSERVED_VALUE: 3.39
//
BIOSEQUENCE: SCTIIFLASIFQCAMWTTALLHQA [L13C]
OBSERVED_VALUE: 2.76
//
BIOSEQUENCE: SCTIIFIASIFQLAMWTTALLHQA [L7I]
OBSERVED_VALUE: 3.83
//
BIOSEQUENCE: SCTIIFLASIFTLAMWTTALLHQA [Q12T]
OBSERVED_VALUE: 3.43
//
BIOSEQUENCE: SCTIIFLASIFQTAMWTTALLHQA [L13T]
OBSERVED_VALUE: 2.49
